Every entry's value here was drawn from the supplement of paper PMC6555819.

# System: PPARg:RXRa IVT, anti-PPARg (NR concentration 270 nM, RXRa partner concentration 90 nM)
# Test: PBM binding z-score (relative to random genomic background probes); higher = stronger binding; sequences stand for … in GC…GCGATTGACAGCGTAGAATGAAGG
Assign Condition met whenever PBM binding z-score does not fall below 3; assign Condition not met whenever it does.

Look over these answered cases.
1. CGTCCAAGGTCAATGCTAGGTAAGTGAAAGCATT    Condition met
2. CCTACTGGGCCATCACGTCATTGATATCAACGTT    Condition met
3. TAGCCTAGATCAGATCGGGCCAGTATACGCTATA    Condition not met
4. CAGCCTAGGTCAGGGCCAGTTTAGGAGGAACGTT    Condition not met

Query :: hey, is PBM binding z-score for this one >= 3? CGTCCAAGGTCAAAGTTCAGTGAAGAGATGACGG
Result :: Condition met
